System: Nightshade
PROCEDURE_DETAILS: Test C preemergence
Assay type: in vivo
TEST_CONTEXT: Rate 62 g/ha, scale 0 to 100
Listed here: items and their measured Plant response rating, Nightshade.
Give only the figure.

# input compound: CCC(CC)c1ccn(C2CCN(c3cccc(OC)c3)C2=O)n1 (stereo not shown) ; wanted: its Plant response rating, Nightshade 0

* * *

Test system: Nightshade
PROCEDURE_DETAILS: Test C preemergence
Type: in vivo
TEST_CONTEXT: Rate 62 g/ha, scale 0 to 100
Listed here: items and their measured Plant response rating, Nightshade.
Give only the figure.

Example compounds with recorded Plant response rating, Nightshade:
COMPOUND: CCC(C)c1ccn(C2CCN(c3cccc(OC)c3)C2=O)n1 (stereo not drawn)
MEASURE: Plant response rating, Nightshade
RESULT: 0
//
COMPOUND: CCOc1cccc(N2CCC(n3ccc(C(C)C)n3)C2=O)c1 (stereo not drawn)
MEASURE: Plant response rating, Nightshade
RESULT: 20

Below: the item to evaluate.
# input compound: COc1cc(N2CCC(n3ccc(C(C)C)n3)C2=O)ccc1Cl (stereo not drawn) ; wanted: its Plant response rating, Nightshade 100
